Target: T1, biotin-MBP-tagged AtHAB1 (residues 172-511), Q9CAJ0
T1 chain: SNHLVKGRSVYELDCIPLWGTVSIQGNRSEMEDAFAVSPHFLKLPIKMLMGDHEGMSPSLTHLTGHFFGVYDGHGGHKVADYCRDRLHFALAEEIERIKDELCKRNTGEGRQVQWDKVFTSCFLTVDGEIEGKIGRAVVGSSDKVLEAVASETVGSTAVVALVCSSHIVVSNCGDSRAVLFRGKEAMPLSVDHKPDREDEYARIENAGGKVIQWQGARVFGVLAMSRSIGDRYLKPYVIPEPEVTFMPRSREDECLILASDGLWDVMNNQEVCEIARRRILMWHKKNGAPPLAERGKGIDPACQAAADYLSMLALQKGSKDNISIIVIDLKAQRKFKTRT
Assay: AlphaScreen
Conditions: chain shown with the change; ABA (2 μM); parent: est. 6900; read off a plot

{"Binder": "H6-SUMO-tagged FePYR1 N186A (protein) MEQQPAAAEPEVPAGLGLTAAEYAELQPTVEAYHRYAVGPGQCSSLVAQRIEAPAAAVWAIVRRFDCPQVYKHFIRSCALRPDPDAGDELRPGRLREVSVISGLPASTSTERLDLLDDARRAFGFTITGGEHRLANYRSVTTVSELAPAAPAKICTVVLESYVVDVPEGNSEEDTRLFADTVVRLALQKLKSLAEANATSAAAQATPPPQAE", "response (photon counts)": 1200}
